The measurements presented in this section are drawn from the supplement of paper PMC4466140.

experimental-system: AgSho1
assay-name: SPOT peptide array binding signal intensity (averaged, normalized) (arbitrary units (background-subtracted, floor 0; scale differs between SH3 domains)); higher = stronger binding of the SH3 domain to the peptide
quantity-kind: SPOT peptide array binding signal intensity

NPNRRAPRRPLSTQH    100
RKQRSIPLSPIVPES    13
GDHPKGPPPPPPPPD    3
YLTRPLPSTPNEDSR    1790
QPQRTAPKPPISAPR    4
SRYRRPLTLLLLKPF    334
KKAPPPVVKPKPRNF    15
VFQFQMPTTPISTKM    251
RTIRKLPLMSLSEYF    122
FPGKKSPRLPHRNKK    33
KDKSRPPRPPPKPLH    71.5
RMVRRRPLRVQFSAR    634
RPVPPPPPMRTTTEG    136
AAHKTKPSIPPKKVE    8
PPLPRAPPVPPATFE    6
